Values compiled from ChEMBL document CHEMBL2218924.

target: Mitogen-activated protein kinase 10 (Homo sapiens); conditions: at 1 µM

Structure Notation	residual activity, %
CC(=O)c1ccc(N2CCOCC2)cc1O	88
c1ccc(-c2n[nH]c3c2oc2ccccc23)cc1	59
O=C1NC(=O)/C(=C\c2ccc3nccnc3c2)S1	89

###

# residual activity listing for each entry below
biological target: CDK3/cyclin E (Homo sapiens) (UniProt P24864+O96020+Q00526); conditions: at 10 µM

Structure Notation	Scale Unit	residual activity
O=C1NC(=O)/C(=C/c2ccc3c(c2)OC(F)(F)O3)S1	%	89
CO[C@H]1C[C@@H]2CC[C@@H](C)[C@@](O)(O2)C(=O)C(=O)N2CCCC[C@H]2C(=O)O[C@H]([C@H](C)C[C@@H]2CC[C@@H](O)[C@H](OC)C2)CC(=O)[C@H](C)/C=C(\C)[C@@H](O)[C@@H](OC)C(=O)[C@H](C)C[C@H](C)/C=C/C=C/C=C/1C	%	86
O=[N+]([O-])c1ccc(-c2nc(-c3ccc(F)cc3)c(-c3ccncc3)[nH]2)cc1	%	85
CC#CC(=O)Nc1cc2c(Nc3ccc(F)c(Cl)c3)ncnc2cn1	%	86
Nc1n[nH]c2nnc(-c3c(-c4ccccc4)nn4ccccc34)cc12	%	90
Cc1cc2ncc(-c3ccccc3)nc2cc1C	%	90
Oc1n[nH]c2nnc(-c3c(-c4ccccc4)nn4ccccc34)cc12	%	87
Cc1cc(Nc2nc(-c3ccccc3)nc3ccccc23)n[nH]1	%	19
c1ccc(-c2n[nH]c3c2oc2ccccc23)cc1	%	41
Cc1ccc(S(=O)(=O)/C=C/C#N)cc1	%	96
Oc1c2ccccc2c2c3c(cccc13)N=N2	%	14
O=C(O)c1ccc2c3c1cccc3c(=O)n1c3ccccc3nc21	%	94
NC(=O)c1ccc2[nH]c(-c3ccc(Oc4ccc(Cl)cc4)cc3)nc2c1	%	80
CCN(CC)C(=O)c1ccc(Nc2nc(OCC3CCCCC3)c3nc[nH]c3n2)cc1	%	34
COc1ccc(CNc2nc(N(CCO)CCO)nc3c2ncn3C(C)C)cc1	%	9
COc1cc2ncnc(N3CCN(C(=O)Nc4ccc(Oc5ccccc5)cc4)CC3)c2cc1OC	%	75
O=C1NC(=O)/C(=C\c2ccc3nccnc3c2)S1	%	68
Oc1ccc(Nc2nc(-c3ccc(Cl)cc3)cs2)cc1	%	80
COc1cc2ncc(-c3ccccc3)nc2cc1OC	%	91
O=Nc1c(-c2c(O)[nH]c3ccccc23)[nH]c2ccccc12	%	0
COc1ccc(OC)c2c(=S)c3ccccc3[nH]c12	%	73
COc1cccc(-c2cc(=O)c3ccccc3o2)c1N	%	84
N#CCCc1ccc2c(c1)-c1[nH]c3ccc([N+](=O)[O-])cc3c1CC(=O)N2	%	0
N#Cc1cnc2cnc(NCc3cccnc3)cc2c1Nc1ccc(F)c(Cl)c1	%	11
O=C1c2ccccc2-[n+]2ccc3c([nH]c4ccccc43)c21	%	81
Cn1cnc2cc3c(Nc4cccc(Br)c4)ncnc3cc21	%	81
Cc1nc(-c2ccccc2)c(-c2ccncc2)o1	%	91
Nc1ccc2ncnc(NCCc3ccc(Oc4ccccc4)cc3)c2c1	%	90
CO[C@@H]1[C@H](N(C)C(=O)c2ccccc2)C[C@H]2O[C@]1(C)n1c3ccccc3c3c4c(c5c6ccccc6n2c5c31)C(=O)NC4	%	67
CO[C@H]1[C@@H](OC)C[C@H](C)[C@@H](OC)C2=CC(=O)C=C(NC(=O)/C(C)=C/C=C/[C@H](OC)[C@@H](OC(N)=O)/C(C)=C/[C@@H]1C)C2=O	%	87
COc1cc2ncnc(Nc3ccc(NC(=O)c4ccccc4)cc3)c2cc1OC	%	97
Cn1cc(/C=C2\C(=O)Nc3ccc(S(N)(=O)=O)cc32)c2ccccc21	%	34
N#CC(C#N)=C(N)/C(C#N)=C/c1ccc(O)cc1	%	89

###

# residual activity per record follows
Molecular target: Ephrin type-B receptor 2 (Homo sapiens) (UniProt P29323)
Sequence (whole entry): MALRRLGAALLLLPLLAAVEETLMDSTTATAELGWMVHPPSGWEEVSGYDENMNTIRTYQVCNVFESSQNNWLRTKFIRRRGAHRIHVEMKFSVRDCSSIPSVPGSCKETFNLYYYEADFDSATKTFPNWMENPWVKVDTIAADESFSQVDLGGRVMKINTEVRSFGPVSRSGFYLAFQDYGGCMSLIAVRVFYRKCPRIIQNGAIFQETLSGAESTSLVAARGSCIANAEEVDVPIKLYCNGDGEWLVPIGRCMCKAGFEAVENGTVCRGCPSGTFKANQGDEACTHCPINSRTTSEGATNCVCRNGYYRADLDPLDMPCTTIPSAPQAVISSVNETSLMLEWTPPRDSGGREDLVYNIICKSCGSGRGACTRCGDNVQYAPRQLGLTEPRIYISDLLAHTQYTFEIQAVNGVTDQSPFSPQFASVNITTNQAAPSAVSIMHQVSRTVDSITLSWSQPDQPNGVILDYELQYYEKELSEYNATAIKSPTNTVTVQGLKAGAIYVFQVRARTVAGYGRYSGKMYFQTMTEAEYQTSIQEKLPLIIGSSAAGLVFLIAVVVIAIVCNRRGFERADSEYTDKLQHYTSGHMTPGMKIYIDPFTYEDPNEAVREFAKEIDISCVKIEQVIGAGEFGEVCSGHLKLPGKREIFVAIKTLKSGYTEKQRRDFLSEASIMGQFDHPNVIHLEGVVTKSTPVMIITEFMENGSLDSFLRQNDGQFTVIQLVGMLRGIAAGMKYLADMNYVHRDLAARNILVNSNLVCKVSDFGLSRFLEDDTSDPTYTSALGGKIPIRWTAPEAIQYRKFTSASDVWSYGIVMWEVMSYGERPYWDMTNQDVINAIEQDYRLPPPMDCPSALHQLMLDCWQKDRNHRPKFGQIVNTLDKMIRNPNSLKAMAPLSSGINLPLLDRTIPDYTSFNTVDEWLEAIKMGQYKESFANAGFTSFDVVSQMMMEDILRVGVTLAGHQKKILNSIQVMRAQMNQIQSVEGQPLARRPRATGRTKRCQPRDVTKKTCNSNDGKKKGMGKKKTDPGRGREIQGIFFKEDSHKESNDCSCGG
Details: at 10 µM
Reported Endpoint: residual activity (%)

Structure Notation	Reported Endpoint	Scale Unit	Value Observed
O=C1NC(=O)/C(=C/c2ccc3c(c2)OC(F)(F)O3)S1	residual activity	%	110
Oc1ccc(-c2nc(-c3ccc(F)cc3)c(-c3ccncc3)[nH]2)cc1	residual activity	%	43
NC(=O)c1ccc2[nH]c(-c3ccc(Oc4ccc(Cl)cc4)cc3)nc2c1	residual activity	%	128
Oc1n[nH]c2nnc(-c3c(-c4ccccc4)nn4ccccc34)cc12	residual activity	%	128
O=C(Nc1cccc(Nc2nccc(Nc3cccc(C(F)(F)F)c3)n2)c1)C1CC1	residual activity	%	26
N#Cc1cnc2cnc(NCc3cccnc3)cc2c1Nc1ccc(F)c(Cl)c1	residual activity	%	100
COc1ccc(C(=O)Nc2sc3c(c2C(N)=O)CCCC3)cc1OC	residual activity	%	110
O=C1NC(=O)/C(=C\c2ccc3nccnc3c2)S1	residual activity	%	119
CO[C@@H]1[C@H](N(C)C(=O)c2ccccc2)C[C@H]2O[C@]1(C)n1c3ccccc3c3c4c(c5c6ccccc6n2c5c31)C(=O)NC4	residual activity	%	222
c1ccc2c(-c3ccncc3)c[nH]c2c1	residual activity	%	111
N#C/C(=C(\N)Sc1ccc(N)cc1)c1ccccc1C(F)(F)F	residual activity	%	110
Cn1cc(/C=C2\C(=O)Nc3ccc(S(N)(=O)=O)cc32)c2ccccc21	residual activity	%	49
Oc1c2ccccc2c2c3c(cccc13)N=N2	residual activity	%	95
O=c1cc(-c2cccc3c2Sc2ccccc2S3)oc(N2CCOCC2)c1	residual activity	%	126
O=C1Nc2cc(Br)ccc2/C1=C1/Nc2ccccc2/C1=N\O	residual activity	%	22
Nc1cccc(-c2cc3c(Oc4cccc(O)c4)ncnc3[nH]2)c1	residual activity	%	-1
C[C@@H](N)[C@H]1CC[C@H](C(=O)Nc2ccncc2)CC1	residual activity	%	92
N#CCCc1ccc2c(c1)-c1[nH]c3ccc([N+](=O)[O-])cc3c1CC(=O)N2	residual activity	%	67
CO[C@H]1C[C@@H]2CC[C@@H](C)[C@@](O)(O2)C(=O)C(=O)N2CCCC[C@H]2C(=O)O[C@H]([C@H](C)C[C@@H]2CC[C@@H](O)[C@H](OC)C2)CC(=O)[C@H](C)/C=C(\C)[C@@H](O)[C@@H](OC)C(=O)[C@H](C)C[C@H](C)/C=C/C=C/C=C/1C	residual activity	%	105
O=C1NC(=O)c2cc(Nc3ccc(F)cc3)c(Nc3ccc(F)cc3)cc21	residual activity	%	69
COc1ccc(CNc2nc(N(CCO)CCO)nc3c2ncn3C(C)C)cc1	residual activity	%	106

###

In this section, each of the compounds is paired with its reported residual activity.
target: Proto-oncogene tyrosine-protein kinase ROS (Homo sapiens); settings: at 1 µM
Reported Endpoint: residual activity (%)

Structure Notation	Reported Endpoint	Value Observed
Oc1ccc(-c2nc(-c3ccc(F)cc3)c(-c3ccncc3)[nH]2)cc1	residual activity	115
COc1ccc(S(=O)(=O)N(CCO)c2ccccc2CN(C)C/C=C/c2ccc(Cl)cc2)cc1	residual activity	105
C[C@@H](N)[C@H]1CC[C@H](C(=O)Nc2ccncc2)CC1	residual activity	104
CCN(CC)CCCCN1c2ccccc2Oc2ccc(Cl)cc21	residual activity	100
Cn1cc(/C=C2\C(=O)Nc3ccc(S(N)(=O)=O)cc32)c2ccccc21	residual activity	98
O=[N+]([O-])c1ccc(-c2nc(-c3ccc(F)cc3)c(-c3ccncc3)[nH]2)cc1	residual activity	104
Cc1nc2cc3nc(-c4cccs4)cnc3cc2n1C	residual activity	109
CO[C@H]1C[C@@H]2CC[C@@H](C)[C@@](O)(O2)C(=O)C(=O)N2CCCC[C@H]2C(=O)O[C@H]([C@H](C)C[C@@H]2CC[C@@H](O)[C@H](OC)C2)CC(=O)[C@H](C)/C=C(\C)[C@@H](O)[C@@H](OC)C(=O)[C@H](C)C[C@H](C)/C=C/C=C/C=C/1C	residual activity	90
CC#CC(=O)Nc1cc2c(Nc3ccc(F)c(Cl)c3)ncnc2cn1	residual activity	94
O=C1NC(=O)/C(=C/c2ccc3c(c2)OC(F)(F)O3)S1	residual activity	105
